- system.under.test: T1, HMGN1 (Homo sapiens, UniProt P05114 1-100)
- T1 sequence: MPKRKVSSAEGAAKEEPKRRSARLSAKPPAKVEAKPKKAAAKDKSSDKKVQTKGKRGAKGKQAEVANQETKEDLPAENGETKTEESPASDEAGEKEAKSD
- test: MST; positive control; MST, 50 nM labelled protein, 0.61 nM-20 uM oligo, 140 mM potassium phosphate pH 7.2 (6.7 for i-motif N1-3; CTCF oligo CD at pH 6.7), 10 mM NaCl in oligo stocks, 22 C
- cond: protein: commercial; tags: His; parallel G4
measurement.label: Kd (nM)
A number alone suffices; assume nM.

### Prompt Endpoint output: Kd of GGTGACAGGGGTATGGGGAGGGG (structured_DNA) [CT1 (G4-2)] . Value?
### Response 1600

Entry source: paper PMC8269367
